- EXPERIMENTAL TARGET: Caspase-3 (Homo sapiens, UniProt P42574)
- Sequence (P42574 whole entry): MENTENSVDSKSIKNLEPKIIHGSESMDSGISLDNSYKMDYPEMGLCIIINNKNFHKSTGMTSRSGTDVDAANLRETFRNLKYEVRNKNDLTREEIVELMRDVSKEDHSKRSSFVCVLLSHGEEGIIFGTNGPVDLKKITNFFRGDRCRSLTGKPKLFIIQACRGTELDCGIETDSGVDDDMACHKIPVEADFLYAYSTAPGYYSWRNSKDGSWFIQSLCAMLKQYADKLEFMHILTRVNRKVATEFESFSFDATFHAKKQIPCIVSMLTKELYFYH
pIC50: −log10 of the molar value.
PROPERTY: pIC50

What does the record list as pIC50 for CN1CCN(C(=O)c2cc(Br)cc([N+](=O)[O-])c2N[C@@H]2CCCC[C@@H]2NC(=O)c2cc(=O)[nH]c3c(F)cccc23)CC1 ? < 4.00
